Reference for the values: paper PMC8002271

- Tested on: S. aureus TISTR 2392
- Test Details: Antibacterial microbroth dilution MIC, S. aureus
- Type: cell-based
- Assay Conditions: Staphylococcus aureus, TISTR2392; Gram-positive; microbroth dilution, 37 °C, 24 h; read-out: MIC S. aureus

{"Compound": "CC(C)=CCc1cc2cc(C(=O)Nc3ccc(Cl)cc3)c(=O)oc2cc1O [14c]", "MIC": "> 128 µg/mL"}
{"Compound": "CC(C)=CCc1cc2cc(C(=O)Nc3ccc(C)cc3)c(=O)oc2cc1O [14f]", "MIC": "> 128 µg/mL"}
{"Compound": "CC(C)=CCc1cc2cc(C(=O)Nc3ccccc3)c(=O)oc2cc1O [14a]", "MIC": "> 128 µg/mL"}
{"Compound": "CC(C)=CCc1cc2cc(C(=O)O)c(=O)oc2cc1O", "MIC": "64 µg/mL"}
{"Compound": "CC(C)=CCc1cc2cc(C(=O)Nc3ccc(F)cc3)c(=O)oc2cc1O [14b]", "MIC": "> 128 µg/mL"}
{"Compound": "CC(C)=CCc1cc2cc(C(=O)Nc3ccc(Br)cc3)c(=O)oc2cc1O [14d]", "MIC": "> 128 µg/mL"}
{"Compound": "CC1(C)S[C@@H]2[C@H](NC(=O)Cc3ccccc3)C(=O)N2[C@H]1C(=O)O [penicillin G, reference compound]", "MIC": "16 µg/mL"}
{"Compound": "CC1(C)C=Cc2cc3cc(C(=O)O)c(=O)oc3cc2O1", "MIC": "64 µg/mL"}
{"Compound": "CC1(C)C=Cc2cc3cc(C(=O)Nc4ccccc4)c(=O)oc3cc2O1", "MIC": "> 128 µg/mL"}
{"Compound": "CC(C)=CCc1cc2cc(C(=O)Nc3cc(F)ccc3F)c(=O)oc2cc1O [14e]", "MIC": "> 128 µg/mL"}
{"Compound": "COc1ccc(NC(=O)c2cc3cc(CC=C(C)C)c(O)cc3oc2=O)cc1 [14g]", "MIC": "> 128 µg/mL"}
